Test system: panel of 140 standard cancer cell lines
assay-procedure: ProliFiler-140 cancer cell line screen (CellTiterGlo, 72 h)
Format: cell-based
condition-notes: read-out: IC50 [M] (ProliFiler-140); SK-N-MC (Brain)
experimental-readout: IC50
# do not omit the unit; it follows the number

Prompt: Find the recorded IC50 belonging to COc1cc2cc(C(=O)N3C[C@@H](CCl)c4c3cc(OC(=O)N3CCN(C(=O)CCC(=O)N5CCN(C)CC5)[C@H]5CSSC[C@H]53)c3ccccc43)[nH]c2c(OC)c1OC [P-SS66C-CBI-TMI] and report it.
Response: 1.61e-09 M

---

Would you kindly list GI50 for each of these compounds?
Tested on: NCI-60 standardized human tumor cell line panel
assay-procedure: cells
Assay type: cell-based
condition-notes: SNB-19; AZI sheet; read-out: GI50
Numbers only, in nM.

CN1CCN(C(=O)Oc2cc3c(c4ccccc24)C(CCl)CN3C(=O)c2cc3cc(OCCCN4CCC4)ccc3[nH]2)C2CSSCC21 (mixture of isomers) [Me-SS66C-CBI-AZI] | 18

Quick batch: GI50 for everything below.
1. O=C(c1cc2cc(OCCCN3CCC3)ccc2[nH]1)N1C[C@@H](CCl)c2c1cc(OCc1ccccc1)c1ccccc21
2. CN1CCN(C(=O)Oc2cc3c(c4ccccc24)C(CCl)CN3C(=O)c2cc3cc(OCCCN4CCC4)ccc3[nH]2)C2CSSCC21 (mixture of isomers) [Me-SS66T-CBI-AZI]
3. CN(CCSSCCN1CCOCC1)C(=O)Oc1cc2c(c3ccccc13)[C@H](CCl)CN2C(=O)c1cc2cc(OCCCN3CCC3)ccc2[nH]1 [SS00M-CBI-AZI]
4. CN1CCN(C(=O)CCN(C(=O)Oc2cc3c(c4ccccc24)[C@H](CCl)CN3C(=O)c2cc3cc(OCCCN4CCC4)ccc3[nH]2)[C@H]2CCSSC2)CC1

Response:
[330, 5.8, 6.6, 270]

---

System: panel of 140 standard cancer cell lines
assay-procedure: ProliFiler-140 cancer cell line screen (CellTiterGlo, 72 h)
Assay type: cell-based
condition-notes: Homo sapiens, NCI-H292, read-out: IC50 [M] (ProliFiler-140), NCI-H292 (Lung)
experimental-readout: IC50 (M)
Give bare numbers, in M.

Prompt: Find the recorded IC50 belonging to COc1cc2cc(C(=O)N3C[C@@H](CCl)c4c3cc(OC(=O)N3CCN(C(=O)CCC(=O)N5CCN(C)CC5)[C@H]5CSSC[C@H]53)c3ccccc43)[nH]c2c(OC)c1OC [P-SS66C-CBI-TMI] and report it.
Response: 3.8e-08

---

Tested on: panel of 140 standard cancer cell lines
assay-procedure: ProliFiler-140 cancer cell line screen (CellTiterGlo, 72 h)
Format: cell-based
condition-notes: Homo sapiens, OCI-LY19, read-out: IC50 [M] (ProliFiler-140), OCI-LY19 (Blood)
experimental-readout: IC50 (M)
Answers are plain numbers, in M.

Prompt: Find the recorded IC50 belonging to COc1cc2cc(C(=O)N3C[C@@H](CCl)c4c3cc(OC(=O)N3CCN(C(=O)CCC(=O)N5CCN(C)CC5)[C@H]5CSSC[C@H]53)c3ccccc43)[nH]c2c(OC)c1OC [P-SS66C-CBI-TMI] and report it.
Response: 2.83e-09

---

System: HeLa-HRE cells
assay-procedure: Resazurin cytotoxicity assay, HeLa-HRE, 48 h
condition-notes: ratio HeLa vs A549
Would you kindly list IC50(HeLa)/IC50(A549) for each of these compounds?
Give bare numbers.

COc1cc2cc(C(=O)N3C[C@@H](CCl)c4c3cc(OC(=O)N(C)CCSSCCN3CCOCC3)c3ccccc43)[nH]c2c(OC)c1OC [SS00M-CBI-TMI] | 3.6

Quick batch: IC50(HeLa)/IC50(A549) for everything below.
1. COc1cc2cc(C(=O)N3C[C@@H](CCl)c4c3cc(OC(=O)N(CCC(=O)N3CCN(C)CC3)[C@H]3CCSSC3)c3ccccc43)[nH]c2c(OC)c1OC
2. COc1cc2cc(C(=O)N3CC(CCl)c4c3cc(OC(=O)N3CCN(C)C5CSSCC53)c3ccccc43)[nH]c2c(OC)c1OC (mixture of isomers) [Me-SS66T-CBI-TMI]
3. COc1cc2cc(C(=O)N3C[C@@H](CCl)c4c3cc(OC(=O)N3CCN(C(=O)CCC(=O)N5CCN(C)CC5)[C@H]5CSSC[C@H]53)c3ccccc43)[nH]c2c(OC)c1OC [P-SS66C-CBI-TMI]
4. COc1cc2cc(C(=O)N3C[C@@H](CCl)c4c3cc(OC(=O)N(CCC(=O)N3CCN(C)CC3)C3CCCCC3)c3ccccc43)[nH]c2c(OC)c1OC

Response:
[2.3, 10, 17, 0.7]

---

Tested on: panel of 140 standard cancer cell lines
assay-procedure: ProliFiler-140 cancer cell line screen (CellTiterGlo, 72 h)
Assay type: cell-based
condition-notes: MKN-1 (Stomach); read-out: IC50 [M] (ProliFiler-140)
experimental-readout: IC50
# do not omit the unit; it follows the number

Prompt: Find the recorded IC50 belonging to `COc1cc2cc(C(=O)N3C[C@@H](CCl)c4c3cc(OC(=O)N(CCC(=O)N3CCN(C)CC3)[C@H]3CCSSC3)c3ccccc43)[nH]c2c(OC)c1OC` and report it.
Response: 2.1e-07 M

---

Tested on: NCI-60 standardized human tumor cell line panel
assay-procedure: cells
Format: cell-based
condition-notes: cell line CCRF-CEM (LE:CCRF-CEM); TMI sheet
Would you kindly list NCI-60 screening: Log(GI50) for each of these compounds?
Give bare numbers.

COc1cc2cc(C(=O)N3C[C@@H](CCl)c4c3cc(OC(=O)N(CCC(=O)N3CCN(C)CC3)C3CCCCC3)c3ccccc43)[nH]c2c(OC)c1OC | -6
COc1cc2cc(C(=O)N3C[C@@H](CCl)c4c3cc(OC(=O)N(CCC(=O)N3CCN(C)CC3)[C@H]3CCSSC3)c3ccccc43)[nH]c2c(OC)c1OC | -6.66
COc1cc2cc(C(=O)N3CC(CCl)c4c3cc(OC(=O)N3CCN(C)C5CSSCC53)c3ccccc43)[nH]c2c(OC)c1OC (mixture of isomers) [Me-SS66C-CBI-TMI] | -6.98

As a next step, examine the compound that follows.
Prompt: Give NCI-60 screening: Log(GI50) (NCI-60 standardized human tumor cell line panel) of the following compound: COc1cc2cc(C(=O)N3CC(CCl)c4c3cc(OC(=O)N3CCN(C)C5CSSCC53)c3ccccc43)[nH]c2c(OC)c1OC (mixture of isomers) [Me-SS66T-CBI-TMI]
Response: -7.58

---

Would you kindly list GI50 for each of these compounds?
Test system: NCI-60 standardized human tumor cell line panel
assay-procedure: cells
Type: cell-based
condition-notes: NCI-H226; AZI sheet; read-out: GI50

Some solved cases for reference:
CN1CCN(C(=O)Oc2cc3c(c4ccccc24)C(CCl)CN3C(=O)c2cc3cc(OCCCN4CCC4)ccc3[nH]2)C2CSSCC21 (mixture of isomers) [Me-SS66T-CBI-AZI] | 3.4 nM
CN1CCN(C(=O)CCN(C(=O)Oc2cc3c(c4ccccc24)[C@H](CCl)CN3C(=O)c2cc3cc(OCCCN4CCC4)ccc3[nH]2)[C@H]2CCSSC2)CC1 [P-SS60-CBI-AZI] | 150 nM
CN1CCN(C(=O)Oc2cc3c(c4ccccc24)C(CCl)CN3C(=O)c2cc3cc(OCCCN4CCC4)ccc3[nH]2)C2CSSCC21 (mixture of isomers) [Me-SS66C-CBI-AZI] | 6.9 nM

Quick batch: GI50 for everything below.
1. O=C(c1cc2cc(OCCCN3CCC3)ccc2[nH]1)N1C[C@@H](CCl)c2c1cc(OCc1ccccc1)c1ccccc21 [OBn-CBI-AZI]
2. CN(CCSSCCN1CCOCC1)C(=O)Oc1cc2c(c3ccccc13)[C@H](CCl)CN2C(=O)c1cc2cc(OCCCN3CCC3)ccc2[nH]1 [SS00M-CBI-AZI]

Response:
210 nM
9.5 nM

---

Tested on: NCI-60 standardized human tumor cell line panel
assay-procedure: cells
Format: cell-based
condition-notes: UACC-62; AZI sheet; read-out: GI50
experimental-readout: GI50 (nM)
Give bare numbers, in nM.

Some solved cases for reference:
O=C(c1cc2cc(OCCCN3CCC3)ccc2[nH]1)N1C[C@@H](CCl)c2c1cc(OCc1ccccc1)c1ccccc21 [OBn-CBI-AZI] | 62
CN1CCN(C(=O)Oc2cc3c(c4ccccc24)C(CCl)CN3C(=O)c2cc3cc(OCCCN4CCC4)ccc3[nH]2)C2CSSCC21 (mixture of isomers) [Me-SS66T-CBI-AZI] | 2.2
CN1CCN(C(=O)CCN(C(=O)Oc2cc3c(c4ccccc24)[C@H](CCl)CN3C(=O)c2cc3cc(OCCCN4CCC4)ccc3[nH]2)[C@H]2CCSSC2)CC1 [P-SS60-CBI-AZI] | 110
CN(CCSSCCN1CCOCC1)C(=O)Oc1cc2c(c3ccccc13)[C@H](CCl)CN2C(=O)c1cc2cc(OCCCN3CCC3)ccc2[nH]1 [SS00M-CBI-AZI] | 6.2

As a next step, examine the molecule that follows.
Prompt: Find the recorded GI50 belonging to CN1CCN(C(=O)Oc2cc3c(c4ccccc24)C(CCl)CN3C(=O)c2cc3cc(OCCCN4CCC4)ccc3[nH]2)C2CSSCC21 (mixture of isomers) [Me-SS66C-CBI-AZI] and report it.
Response: 4.2
